measurement_protocol: mn = molality of the nth substance listed, in mol/kg
condition_info: 308.15 K; 101 kPa; Liquid; Alternating current cell with electrodes; m1 = 0.01
quantity_name: electrical conductivity (S/m)

Example molecules with recorded electrical conductivity:
[[record]]
molecule = "[Cl-].[Na+] [sodium chloride] + O"
unit_info = "S/m"
quantitative_readout = 0.142

[[record]]
molecule = "O=S(=O)([O-])[O-].[Na+].[Na+] [sodium sulfate] + O"
unit_info = "S/m"
quantitative_readout = 0.258


(P) [Na+].[OH-] [sodium hydroxide] + O
(Q) [Cl-].[K+] [potassium chloride] + O
Parameter metric = electrical conductivity. Return the lower-valued option from P and Q . Write down the label attached to your selection.
Q
